# TARGET SYSTEM: Arginase-2, mitochondrial (Homo sapiens) (UniProt P78540)
# Sequence (P78540 whole entry): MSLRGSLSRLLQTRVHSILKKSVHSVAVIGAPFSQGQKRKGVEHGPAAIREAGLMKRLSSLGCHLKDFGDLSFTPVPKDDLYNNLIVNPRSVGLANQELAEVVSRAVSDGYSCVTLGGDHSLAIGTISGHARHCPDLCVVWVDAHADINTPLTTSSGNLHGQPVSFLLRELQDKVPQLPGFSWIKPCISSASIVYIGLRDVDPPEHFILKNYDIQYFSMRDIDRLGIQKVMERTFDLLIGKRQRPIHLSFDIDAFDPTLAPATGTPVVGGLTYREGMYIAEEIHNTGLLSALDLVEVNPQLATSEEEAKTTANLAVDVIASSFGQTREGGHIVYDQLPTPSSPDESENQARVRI
# EXPERIMENT: in vitro enzyme assay to detect the production of urea directly proportional to the activity of Arginase II; note: in the data most compounds retested in dose-response had high values
# Format: functional
# Design: scale not given: direction of the effect not stated beside the values
# TEST CONDITIONS: 33.3 µM
# Percent Effect values compiled below
Please reply with the bare figure in % and do not write the unit itself.

COMPOUND: Cc1ccc(C)c(C(C(=O)O)N2CCCN(Cc3ccccn3)CC2)c1 (stereo unspecified)
Percent Effect, %: 4.54
//
COMPOUND: Cc1cnn(CCNCC(O)COc2ccc(Cl)cc2)c1 (stereo unspecified)
Percent Effect, %: 0.76
//
COMPOUND: COc1ccc(NC(=O)Cn2nc(C)ccc2=O)cc1OC
Percent Effect, %: -5.46
//
COMPOUND: O=C(c1cscn1)N1C[C@H]2CCCC(OCc3cccnc3)[C@H]2C1 (stereo partly specified)
Percent Effect, %: -37.5
//
COMPOUND: Cc1ccccc1CNC(=O)CN1CCN(Cc2nccn2C)CC1
Percent Effect, %: -10.8

Kindly review the next compound as well.
Write down Percent Effect measured for item Cc1cnc2n1CCN(C)C21CCN(C(=O)CC(C)C)CC1
-26.3

---

# TARGET SYSTEM: Protein translocase subunit SecA (Escherichia coli (strain K12)) (UniProt P10408)
# Sequence (P10408 whole entry): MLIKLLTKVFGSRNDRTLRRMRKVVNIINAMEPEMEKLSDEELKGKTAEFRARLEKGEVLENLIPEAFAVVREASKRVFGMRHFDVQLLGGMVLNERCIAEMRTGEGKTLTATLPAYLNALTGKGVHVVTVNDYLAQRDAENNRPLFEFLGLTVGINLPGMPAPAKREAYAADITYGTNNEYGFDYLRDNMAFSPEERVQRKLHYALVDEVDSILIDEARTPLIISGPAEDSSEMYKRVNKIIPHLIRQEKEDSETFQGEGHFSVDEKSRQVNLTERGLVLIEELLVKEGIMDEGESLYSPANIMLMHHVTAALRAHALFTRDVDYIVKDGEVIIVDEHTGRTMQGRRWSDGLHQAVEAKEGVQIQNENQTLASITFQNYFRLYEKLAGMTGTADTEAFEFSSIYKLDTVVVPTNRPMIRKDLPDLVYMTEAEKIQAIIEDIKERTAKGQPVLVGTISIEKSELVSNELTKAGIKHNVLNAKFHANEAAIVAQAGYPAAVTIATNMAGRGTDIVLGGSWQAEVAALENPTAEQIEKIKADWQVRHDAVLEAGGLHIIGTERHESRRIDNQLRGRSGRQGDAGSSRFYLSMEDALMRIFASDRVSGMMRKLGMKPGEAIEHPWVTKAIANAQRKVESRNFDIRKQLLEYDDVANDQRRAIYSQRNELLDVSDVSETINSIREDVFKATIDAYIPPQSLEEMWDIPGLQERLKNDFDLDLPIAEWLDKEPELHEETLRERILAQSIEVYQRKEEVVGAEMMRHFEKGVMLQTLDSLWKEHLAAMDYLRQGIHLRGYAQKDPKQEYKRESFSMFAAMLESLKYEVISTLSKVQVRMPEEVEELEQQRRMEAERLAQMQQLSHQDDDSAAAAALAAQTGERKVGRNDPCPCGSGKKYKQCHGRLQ
# EXPERIMENT: Assay to Identify E. coli SecA ATPase Inhibitors
# Type: functional
# Design: scale not given: direction of the effect not stated beside the values
# TEST CONDITIONS: 30 µM
Entries with a potency or affinity are not part of this list.
MEASURED METRIC: Percent Effect (%)
Note: unit % is implicit; provide only the numeric part.

MOLECULE: O=C(c1ccc(Br)o1)N1CCN(Cc2ccc(OC(F)(F)F)cc2)CC1
DISPLAY UNIT: %
MEAS VALUE: -1.82

Using known records, supply Percent Effect for CC(C)c1cccc(CSc2nnc(CN3CCCC3=O)o2)n1
2.49

Output measured Percent Effect for this item: COc1ccc(NC(=O)c2ccc[nH]2)c(N2CCN(C(C)=O)CC2)n1
-1.32

For Cc1ccc(-c2nc(CN3CCN(S(=O)(=O)N(C)C)CC3)cs2)o1 , write its Percent Effect.
1.85

Consider the molecule Cc1ccc(-c2cc(CN3CCCC(Cn4cncn4)C3)on2)cc1 (centres undefined) and give its recorded Percent Effect.
-6.67

Report measured Percent Effect; entry is CC(Cn1cccn1)NC(=O)NCc1ccc(S(N)(=O)=O)cc1 (centres undefined)
-1.8

Return Percent Effect for the following molecule: CC(C)c1nnc2n1CCN(C(=O)c1ccc(OCC(N)=O)cc1)C2
-8.09

Return Percent Effect for the following molecule: Cc1nn(C)cc1CN(C)Cc1cc2c(cc1OC(F)F)OCO2
-4.54

Quick one: give measured Percent Effect for O=C(NCCCO)Nc1cccc(Cl)c1F
-3.09

Consider the molecule Cc1sc(NC(=O)CN(C)S(C)(=O)=O)c(C#N)c1C . State its measured Percent Effect.
-2.06

Tell me its Percent Effect given CC(=O)NCCNC(=O)c1sc(-c2ccc(C)cc2C)nc1C as the entry.
-2.37

Please indicate Percent Effect recorded for CSc1nccn1-c1cccc(C(=O)NCc2nnc(C)n2C)c1
-3.63

Specify Percent Effect for Cc1ccccc1CN1CCN(Cc2nccn2C)CC1 and stop.
-3.45

Indicate its recorded Percent Effect; the molecule in question is CCc1nc(CC(=O)NCC(Cc2ccc(F)cc2)C(N)=O)cs1 (centres undefined)
-8.91

Please report Percent Effect for the following molecule: COc1c(C2CCCN2C(=O)c2cc(Cl)c[nH]2)c(C)nn1C (centres undefined)
-5.79

Specify measured Percent Effect for Cc1cc(C)n(CC2CCCN2CCc2ccncc2)n1 (centres undefined) .
-5.42

Entry CCS(=O)(=O)N(C)C1CCN(C(=O)c2cccc(Cl)c2)CC1 needs its Percent Effect filled in; supply it.
-3.98

// fetch Percent Effect given entry CN(Cc1ncc[nH]1)S(=O)(=O)c1cccc(C(=O)N2CCOCC2)c1
-6.58

// Input: Cc1csc2c(=O)n3c(nc12)CCN(C(=O)c1cccnc1)CC3 . Output its Percent Effect only.
-2.51

Determine its reported Percent Effect: Cc1ncccc1O[C@H]1CCN(C(=O)Cc2cccs2)CC[C@@H]1O
-5.37

Find the measured Percent Effect of CCN1C(=O)CCCC12CCCN(C(=O)c1conc1C)C2 (centres undefined) and report it.
-1.85

Answer with reported Percent Effect of COc1ccc(OC)c(-c2nc(CN(C)Cc3nncn3C)c(C)o2)c1
-4.01

Give the value of Percent Effect reported for the following: COC(=O)CCC(=O)N1CCc2[nH]nc(-c3ccc(F)c(F)c3)c2C1
-3.6

Answer with the recorded Percent Effect for the molecule listed here: Cc1cnn(CC2CCCN2CC(=O)N(C)CCC#N)c1 (centres undefined)
-1.24

Data credit: ChEMBL document CHEMBL3988442
